- targetDesc: E. coli WT RNAP (Escherichia coli, UniProt P0A8V2)
- Construct: made in house
- assaySummary: biochemical
valueType: pIC50
Scale note: pIC50 = -log10(concentration in M).

// below: answered compounds
CO[C@H]1/C=C/O[C@@]2(C)Oc3c(C)c(O)c4c(=O)c(c5oc6cc(N7CCN(C)CC7)cc(OCCCCN7CCN(C(=O)Cn8ccnc8)CC7)c6nc-5c4c3C2=O)NC(=O)/C(C)=C\C=C\[C@H](C)[C@H](O)[C@@H](C)[C@@H](O)[C@@H](C)[C@H](OC(C)=O)[C@@H]1C [Compound 6c] :: 8.00
CO[C@H]1/C=C/O[C@@]2(C)Oc3c(C)c(O)c4c(=O)c(c5oc6cccc(OCCCCN7CCNCC7)c6nc-5c4c3C2=O)NC(=O)/C(C)=C\C=C\[C@H](C)[C@H](O)[C@@H](C)[C@@H](O)[C@@H](C)[C@H](OC(C)=O)[C@@H]1C [Compound 5d] :: 8.22

Now for another entry.
*Q* # lookup: pIC50 of CO[C@H]1/C=C/O[C@@]2(C)Oc3c(C)c(O)c4c(=O)c(c5oc6cc(C=Nc7ccc(N8CCOCC8)cc7)cc(N7CCN(C)CC7)c6nc-5c4c3C2=O)NC(=O)/C(C)=C\C=C\[C@H](C)[C@H](O)[C@@H](C)[C@@H](O)[C@@H](C)[C@H](OC(C)=O)[C@@H]1C [Compound 32]
*A* 8.00

###

- targetDesc: E. coli WT RNAP (Escherichia coli, UniProt P0A8V2)
Below: a set of entries, each annotated with reported IC50.
# value in nM; strip the unit string

// below: answered molecules
CO[C@H]1/C=C/O[C@@]2(C)Oc3c(C)c(O)c4c(=O)c(c5oc6cccc(OCCCCN7CCN(C)CC7)c6nc-5c4c3C2=O)NC(=O)/C(C)=C\C=C\[C@H](C)[C@H](O)[C@@H](C)[C@@H](O)[C@@H](C)[C@H](OC(C)=O)[C@@H]1C :: 6
CO[C@H]1/C=C/O[C@@]2(C)Oc3c(C)c(O)c4c(=O)c(c5oc6cc(C)cc(N7CCN(CC(C)C)CC7)c6nc-5c4c3C2=O)NC(=O)/C(C)=C\C=C\[C@H](C)[C@H](O)[C@@H](C)[C@@H](O)[C@@H](C)[C@H](OC(C)=O)[C@@H]1C [Compound 30c] :: 6
CO[C@H]1/C=C/O[C@@]2(C)Oc3c(C)c(O)c4c(=O)c(c5oc6cccc(OCc7ccc(CN8CCN(C(=O)Cn9ccnc9)CC8)cc7)c6nc-5c4c3C2=O)NC(=O)/C(C)=C\C=C\[C@H](C)[C@H](O)[C@@H](C)[C@@H](O)[C@@H](C)[C@H](OC(C)=O)[C@@H]1C [Compound 16b] :: 5

Now for another entry.
*Q* // map CO[C@H]1/C=C/O[C@@]2(C)Oc3c(C)c(O)c4c(=O)c(c5oc6cc(N7CCN(CC(C)C)CC7)cc(OCc7cccc(CN8CCN(C(=O)Cn9ccnc9)CC8)c7)c6nc-5c4c3C2=O)NC(=O)/C(C)=C\C=C\[C@H](C)[C@H](O)[C@@H](C)[C@@H](O)[C@@H](C)[C@H](OC(C)=O)[C@@H]1C [Compound 12c] to recorded IC50 (system: E. coli WT RNAP (Escherichia coli, UniProt P0A8V2))
*A* 14

###

Below: a set of entries, each annotated with reported IC50.
- targetDesc: E. coli D516V (RIF^R) RNAP (Escherichia coli, UniProt P0A8V2, D516V)
- assaySummary: biochemical
# value in µM; strip the unit string

// below: answered compounds
CO[C@H]1/C=C/O[C@@]2(C)Oc3c(C)c(O)c4c(=O)c(c5oc6cc(N7CCN(CC(C)C)CC7)cc(OCCCCN7CCN(CCn8ccnc8)CC7)c6nc-5c4c3C2=O)NC(=O)/C(C)=C\C=C\[C@H](C)[C@H](O)[C@@H](C)[C@@H](O)[C@@H](C)[C@H](OC(C)=O)[C@@H]1C [Compound 6b] :: 51
CO[C@H]1/C=C/O[C@@]2(C)Oc3c(C)c(O)c4c(=O)c(c5oc6cccc(OCCCCN7CCN(C)CC7)c6nc-5c4c3C2=O)NC(=O)/C(C)=C\C=C\[C@H](C)[C@H](O)[C@@H](C)[C@@H](O)[C@@H](C)[C@H](OC(C)=O)[C@@H]1C [Compound 5a] :: 27
CO[C@H]1/C=C/O[C@@]2(C)Oc3c(C)c(O)c4c(=O)c(c5oc6cccc(OCCCCN7CCN(C(=O)CN8CCOCC8)CC7)c6nc-5c4c3C2=O)NC(=O)/C(C)=C\C=C\[C@H](C)[C@H](O)[C@@H](C)[C@@H](O)[C@@H](C)[C@H](OC(C)=O)[C@@H]1C [Compound 5e] :: 23
CO[C@H]1/C=C/O[C@@]2(C)Oc3c(C)c(O)c4c(=O)c(c5oc6cccc(OCc7cccc(CN8CCN(C(=O)Cc9ccccc9)CC8)c7)c6nc-5c4c3C2=O)NC(=O)/C(C)=C\C=C\[C@H](C)[C@H](O)[C@@H](C)[C@@H](O)[C@@H](C)[C@H](OC(C)=O)[C@@H]1C [Compound 11g] :: 0.58
CO[C@H]1/C=C/O[C@@]2(C)Oc3c(C)c(O)c4c(=O)c(c5oc6cccc(OCCCCN7CCN(C(=O)OC(C)(C)C)CC7)c6nc-5c4c3C2=O)NC(=O)/C(C)=C\C=C\[C@H](C)[C@H](O)[C@@H](C)[C@@H](O)[C@@H](C)[C@H](OC(C)=O)[C@@H]1C [Compound 5c] :: 22

*Q* # lookup: IC50 of CO[C@H]1/C=C/O[C@@]2(C)Oc3c(C)c(O)c4c(=O)c(c5oc6cc(N7CCN(CC(C)C)CC7)cc(OCc7cccc(CN8CCN(C(=O)Cn9ccnc9)CC8)c7)c6nc-5c4c3C2=O)NC(=O)/C(C)=C\C=C\[C@H](C)[C@H](O)[C@@H](C)[C@@H](O)[C@@H](C)[C@H](OC(C)=O)[C@@H]1C [Compound 12c]
*A* 17

*Q* # lookup: IC50 of CO[C@H]1/C=C/O[C@@]2(C)Oc3c(C)c(O)c4c(=O)c(c5oc6cc(N7CCN(CC(C)C)CC7)cc(OCCCCN7CCOCC7)c6nc-5c4c3C2=O)NC(=O)/C(C)=C\C=C\[C@H](C)[C@H](O)[C@@H](C)[C@@H](O)[C@@H](C)[C@H](OC(C)=O)[C@@H]1C [Compound 6a]
*A* 39

*Q* # lookup: IC50 of CO[C@H]1/C=C/O[C@@]2(C)Oc3c(C)c(O)c4c(=O)c(c5oc6cccc(OCc7cccc(CN8CCN(C(=O)CN9CCOCC9)CC8)c7)c6nc-5c4c3C2=O)NC(=O)/C(C)=C\C=C\[C@H](C)[C@H](O)[C@@H](C)[C@@H](O)[C@@H](C)[C@H](OC(C)=O)[C@@H]1C [Compound 11f]
*A* 39

*Q* # lookup: IC50 of CO[C@H]1/C=C/O[C@@]2(C)Oc3c(C)c(O)c4c(=O)c(c5oc6cccc(OCc7ccc(CN8CCN(C(=O)Cn9ccnc9)CC8)cc7)c6nc-5c4c3C2=O)NC(=O)/C(C)=C\C=C\[C@H](C)[C@H](O)[C@@H](C)[C@@H](O)[C@@H](C)[C@H](OC(C)=O)[C@@H]1C [Compound 16b]
*A* 24

*Q* # lookup: IC50 of CO[C@H]1/C=C/O[C@@]2(C)Oc3c(C)c(O)c4c(=O)c(c5oc6cc(C)cc(N7CCN(CC(C)C)CC7)c6nc-5c4c3C2=O)NC(=O)/C(C)=C\C=C\[C@H](C)[C@H](O)[C@@H](C)[C@@H](O)[C@@H](C)[C@H](OC(C)=O)[C@@H]1C [Compound 30c]
*A* 10

*Q* # lookup: IC50 of CO[C@H]1/C=C/O[C@@]2(C)Oc3c(C)c(O)c4c(=O)c(c5oc6cc(N7CCN(CC(C)C)CC7)cc(OCc7ccc(CN8CCN(C(=O)Cn9ccnc9)CC8)cc7)c6nc-5c4c3C2=O)NC(=O)/C(C)=C\C=C\[C@H](C)[C@H](O)[C@@H](C)[C@@H](O)[C@@H](C)[C@H](OC(C)=O)[C@@H]1C [Compound 17c]
*A* 12

*Q* # lookup: IC50 of CO[C@H]1/C=C/O[C@@]2(C)Oc3c(C)c(O)c4c(=O)c(c5oc6cc(N7CCN(CC(C)C)CC7)cc(OCc7ccc(CN8CCN(C(=O)CN9CCOCC9)CC8)cc7)c6nc-5c4c3C2=O)NC(=O)/C(C)=C\C=C\[C@H](C)[C@H](O)[C@@H](C)[C@@H](O)[C@@H](C)[C@H](OC(C)=O)[C@@H]1C [Compound 17d]
*A* 7.3

*Q* # lookup: IC50 of CO[C@H]1/C=C/O[C@@]2(C)Oc3c(C)c(O)c4c(=O)c(c5oc6cc(C=Nc7ccc(N8CCOCC8)cc7)cc(N7CCN(C)CC7)c6nc-5c4c3C2=O)NC(=O)/C(C)=C\C=C\[C@H](C)[C@H](O)[C@@H](C)[C@@H](O)[C@@H](C)[C@H](OC(C)=O)[C@@H]1C [Compound 32]
*A* 30

*Q* # lookup: IC50 of CO[C@H]1/C=C/O[C@@]2(C)Oc3c(C)c(O)c4c(=O)c(c5oc6cccc(OCCCCN7CCNCC7)c6nc-5c4c3C2=O)NC(=O)/C(C)=C\C=C\[C@H](C)[C@H](O)[C@@H](C)[C@@H](O)[C@@H](C)[C@H](OC(C)=O)[C@@H]1C [Compound 5d]
*A* 29
